# target_system: Histamine H4 receptor (Homo sapiens) (UniProt Q9H3N8)
# Sequence (Q9H3N8 whole entry): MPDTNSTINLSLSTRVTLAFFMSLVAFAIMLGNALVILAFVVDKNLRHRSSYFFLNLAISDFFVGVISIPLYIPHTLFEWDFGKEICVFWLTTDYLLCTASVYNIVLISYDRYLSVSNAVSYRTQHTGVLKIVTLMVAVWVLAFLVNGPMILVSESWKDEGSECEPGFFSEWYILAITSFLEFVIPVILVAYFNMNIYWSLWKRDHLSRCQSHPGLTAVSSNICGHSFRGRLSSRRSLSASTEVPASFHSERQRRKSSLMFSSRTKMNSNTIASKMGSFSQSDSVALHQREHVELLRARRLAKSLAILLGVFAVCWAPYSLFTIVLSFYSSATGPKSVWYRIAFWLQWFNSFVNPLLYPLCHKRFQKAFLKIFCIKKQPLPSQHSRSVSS
# test_settings: Compound concentration 10 µM
measured_metric: inhibition (%)
Give bare numbers, in %.

INSERT INTO assay_data (molecule, target_system, measured_metric, recorded_measurement) VALUES
  ('COc1ccc(/C=C/CCCCOc2ccc(C(=O)c3cccc(C(=O)O)c3)cc2CCC(=O)O)cc1', 'Histamine H4 receptor (Homo sapiens) (UniProt Q9H3N8)', 'inhibition', 4.74);

Hello, I would appreciate it if you could give inhibition for each entry below.
1. CNc1nc(NCc2ccc(NS(C)(=O)=O)cc2Cl)cc(-c2ccccn2)n1
2. CCc1cc(C(C)=O)c(O)cc1OCCCCCC(C)(C)c1nn[nH]n1
3. CC[C@@H]1CN2C(=O)N(C)c3nc(-c4ccccc4)[nH]c3C2=N1
4. CNC[C@H](O)c1ccc(O)c(O)c1
5. C[C@H](Cc1cc2c(c(C(N)=O)c1)N(CCCO)CC2)NCCOc1ccccc1OCC(F)(F)F

Result string:
1. 0.58
2. 34.3
3. -3.92
4. -7.99
5. -6.83

Hello, I would appreciate it if you could give inhibition for each entry below.
1. Brc1c(NC2=NCCN2)ccc2nccnc12
2. COc1cc(-n2cnc3cc(-c4ccc(Cl)cc4)sc3c2=O)ccc1OCCN1CCCC1
3. OC1(c2ccc(Cl)cc2)CCN(Cc2c[nH]c3ccccc23)CC1
4. O=C(O)C1CN(Cc2ccc(OCc3ccc(Cl)c(Cl)c3)cc2)C1
5. COc1ccc(S(=O)(=O)N2c3ccc(Cl)cc3[C@](O)(c3ccccc3Cl)[C@@H]2C(=O)N2CCC[C@H]2C(N)=O)cc1OC
6. CN1CCCC(n2nc(Cc3ccc(Cl)cc3)c3ccccc3c2=O)CC1 (centres undefined)
7. CCc1nn(CCCN2CCN(c3cccc(Cl)c3)CC2)c(=O)n1CCOc1ccccc1
8. S=C(NCCCc1c[nH]cn1)NCCCN(Cc1ccc(Cl)c(Cl)c1)c1ccc(Br)cn1

Result string:
[2.56, 58.1, 13.8, -3.72, 21.7, 1.53, 5.27, 99.3]

Hello, I would appreciate it if you could give inhibition for each entry below.
1. N#Cc1c(O)nc(SCc2cccc(F)c2F)nc1C1CC1
2. CCc1cc2c(cc1CC)CC(NC[C@H](O)c1ccc(O)c3[nH]c(=O)ccc13)C2
3. CCCCC#Cc1nc(NC)c2ncn([C@@H]3O[C@H](CO)[C@@H](O)[C@H]3O)c2n1
4. COc1ccc(CNC(=O)c2cc(-c3cncc(Cl)c3)cnc2-c2ccccn2)nc1OC
5. CC(C)(C(=O)O)c1ccc(C(O)CCCN2CCC(C(O)(c3ccccc3)c3ccccc3)CC2)cc1 (centres undefined)
6. COc1ccccc1N1CCN(CCCCNC(=O)c2ccc3ccccc3c2)CC1
7. Cc1nc(C(=O)N2CCC[C@H]2Cc2nnc(-c3ccccc3)o2)c(-c2ccccc2F)s1

Result string:
[4.02, 4.91, -7.18, 5.15, -8.03, 8.79, -2.37]

Hello, I would appreciate it if you could give inhibition for each entry below.
1. Cc1cc(C)cc(-c2cnc3cc(Cl)c(-c4cccc(O)c4)cc3c2OCCCN)c1
2. Cc1cc(NC(=O)NCCN2CCC(O)(Cc3ccccc3)CC2)c2ccccc2n1
3. CN1C(=O)[C@@H](NC(=O)c2cc3ccccc3[nH]2)N=C(c2ccccc2)c2ccccc21
4. Cc1cc(C)cc(C(=O)N(C)[C@H](Cc2ccc(-c3ccccc3)cc2)C(=O)N[C@@H](Cc2c[nH]c3ccccc23)C(=O)O)c1
5. COc1ccc2[nH]cc(CCNC(C)=O)c2c1
6. O=c1ccc2ccc(OCCCCN3CCN(c4cccc5sccc45)CC3)cc2[nH]1
7. COc1cccc([C@@H](C)NCCCc2ccccc2Cl)c1
8. Cc1nc(-c2ccc(-c3ccc(C(=O)N4CCc5cc6c(cc54)C4(CCN(C)CC4)CO6)cc3)c(C)c2)no1

Result string:
68.2
3.45
-4.47
-4.33
-3.64
8
0
20.5
